Tested on: Replicase polyprotein 1ab (Severe acute respiratory syndrome coronavirus 2, UniProt P0DTD1)
Test readout: pKi
pKi here: minus log base 10 of the concentration, concentration in moles per litre.

OCC1Cc2c(-c3cc(-c4ccccc4)ccn3)cccc2-c2c(O)ccc(-c3ccc(Br)cc3)c21 (configuration not stated)	5.22

# evaluate next
Consider O=Cc1ccnc(-c2cccc3c2CC(CO)c2c(-c4ccc(Br)cc4)ccc(O)c2-3)c1 (configuration not stated) . Its measured pKi is 5.12

* * *

The compounds listed here are annotated with their log10 of IC50.
Tested on: Replicase polyprotein 1ab (Severe acute respiratory syndrome coronavirus 2)
Assay notes: Inhibition of SARS-CoV-2 3CL protease using Dabcyl-KNSTLQSGLRKE-Edan as substrate incubated for 30 mins and measured by FRET assay
A value of 2 here means IC50 of 100 in µM, since values are log10.

CC(=O)OCC1Cc2c(-c3ccc(S(C)(=O)=O)cn3)cccc2-c2c(O)ccc(-c3ccc(Br)cc3)c21 (centres undefined)	0.82

Notebook: CC(=O)OCC1Cc2c(-c3cc(C=O)ccn3)cccc2-c2c(O)ccc(-c3ccc(Br)cc3)c21 (centres undefined) , log10 of IC50 read as 0.52

For CC(=O)OCC1Cc2c(-c3ccc(Cl)cn3)cccc2-c2c(O)ccc(-c3ccc(Br)cc3)c21 (centres undefined) the compound record lists log10 of IC50 as 0.43

Form field log10 of IC50, entry CC(=O)OCC1Cc2c(-c3ccc(N(C)C)cn3)cccc2-c2c(O)ccc(-c3ccc(Br)cc3)c21 (centres undefined) : 0.56

// sample OCC1Cc2c(-c3cc(-c4ccccc4)ccn3)cccc2-c2c(O)ccc(-c3ccc(Br)cc3)c21 (centres undefined) , its log10 of IC50 was 0.19

Recorded result, CC(=O)OCC1Cc2c(-c3ccc(NCc4ccccc4)cn3)cccc2-c2c(O)ccc(-c3ccc(Br)cc3)c21 (centres undefined) , log10 of IC50: 0.52

The measured log10 of IC50 associated with CC(=O)OCC1Cc2c(-c3ccc(C=O)cn3)cccc2-c2c(O)ccc(-c3ccc(Br)cc3)c21 (centres undefined) reads 0.95

Memo: CC(=O)OCC1Cc2c(-c3ccccn3)cccc2-c2c(O)ccc(-c3ccc(Br)cc3)c21 (centres undefined) , reported log10 of IC50: 0.81

Lookup result for CC(=O)OCC1Cc2c(-c3cc(N4CCOCC4)ccn3)cccc2-c2c(O)ccc(-c3ccc(Br)cc3)c21 (centres undefined) ; measured log10 of IC50: 0.87

log10 of IC50 in this record for CC(=O)OCC1Cc2c(-c3ncccc3C)cccc2-c2c(O)ccc(C)c21 (centres undefined) : 1.77

Sample CC(=O)OCC1Cc2c(-c3cc(-c4ccccc4)ccn3)cccc2-c2c(O)ccc(-c3ccc(Br)cc3)c21 (centres undefined) ; log10 of IC50 observed: 0.39

The compound OCC1Cc2c(-c3ccc(Cl)cn3)cccc2-c2c(O)ccc(-c3ccc(Br)cc3)c21 (centres undefined) showed log10 of IC50 equal to 0.67

Reported log10 of IC50 of N#Cc1ccc(-c2cccc3c2CC(CO)c2c(-c4ccc(Br)cc4)ccc(O)c2-3)nc1 (centres undefined) : 1.03

The value of log10 of IC50 measured for the compound CC(=O)OCC1Cc2c(-c3ccccn3)cccc2-c2c(O)ccc(C)c21 (centres undefined) turned out to be 1.79

get_value(item= CC(=O)OCC1Cc2c(-c3ccccn3)cc(C)cc2-c2c(O)ccc(C)c21 (centres undefined) , readout=log10 of IC50) returns 1.76
